Tested on: CMV strain Davis
experiment.description: CMV strain Davis induced cytopathicity in HEL cells
Type: cell-based, cytomegalo virus
conditions: Human betaherpesvirus 5, 168 h, 50% reduction of virus induced cytopathicity, 7 days post infection
assay.metric: log10 EC50 (log10 of the value in µM)

1. CCCCCCCCCc1cc2cn(C3CCC(CO)O3)c(=O)nc2o1 (stereo not shown) : 0.11
2. CCCCCCCCCCCc1cc2cn(C3CCC(CO)O3)c(=O)nc2o1 (stereo not shown) : 0.08
3. CCCCOCCCCCCCCCc1cc2cn(C3CCC(CO)O3)c(=O)nc2o1 (stereo not shown) : 0.00
4. CCCCCCCCCCc1cc2cn(C3CCC(CO)O3)c(=O)nc2o1 (stereo not shown) : 0.51
5. O=c1nc2oc(CCCCCCCCCOCCCCCl)cc2cn1C1CCC(CO)O1 (stereo not shown) : 0.00
6. CCCCCCCCc1cc2cn(C3CCC(CO)O3)c(=O)nc2o1 (stereo not shown) : 0.38
7. Nc1nc(O)c2ncn(COC(CO)CO)c2n1 [Ganciclovir, reference compound] : 0.53
8. CCCCCCCCCCCCCCc1cc2cn(C3CCC(CO)O3)c(=O)nc2o1 (stereo not shown) : 1.60
9. CCCCCCCCCCCCc1cc2cn(C3CCC(CO)O3)c(=O)nc2o1 (stereo not shown) : 0.70

----------
experiment.description: concentration required to reduce the cell number by 50%
Type: cell-based
conditions: human, human embryonic lung cells; concentration reducing the cell number by 50%
# reported CC50; entries follow
assay.metric: CC50

1) O=c1nc2oc(CCCCCCCCCOCCCCCl)cc2cn1C1CCC(CO)O1 (centres unmarked) : > 200 µM
2) CCCCCCCCc1cc2cn(C3CCC(CO)O3)c(=O)nc2o1 (centres unmarked) : 112 µM
3) CCCCCCCCCc1cc2cn(C3CCC(CO)O3)c(=O)nc2o1 (centres unmarked) : > 200 µM
4) CCCCCCCCCCCCCCc1cc2cn(C3CCC(CO)O3)c(=O)nc2o1 (centres unmarked) : > 200 µM
5) CCCCCCCCCCc1cc2cn(C3CCC(CO)O3)c(=O)nc2o1 (centres unmarked) : > 200 µM

----------
System: human embryonic lung cells
experiment.description: minimum cytotoxic concentration to human embryonic lung cells
Assay type: cell-based
conditions: minimum cytotoxic concentration, human embryonic lung cells
assay.metric: MCC/μM (µM)

1. CCCCCCc1cc2cn(C3CCC(CO)O3)c(=O)nc2o1 (stereo not shown) : 200
2. O=c1nc2oc(CCCCCCCCCOCCCCCl)cc2cn1C1CCC(CO)O1 (stereo not shown) : 20
3. CCCCCCCCCCCCc1cc2cn(C3CCC(CO)O3)c(=O)nc2o1 (stereo not shown) : 200
4. CCCCCCCCCCCc1cc2cn(C3CCC(CO)O3)c(=O)nc2o1 (stereo not shown) : 50
5. CCCCCCCCc1cc2cn(C3CCC(CO)O3)c(=O)nc2o1 (stereo not shown) : 20
6. CCCCCCCCCc1cc2cn(C3CCC(CO)O3)c(=O)nc2o1 (stereo not shown) : 200
7. CCCCCCCCCCCCCCc1cc2cn(C3CCC(CO)O3)c(=O)nc2o1 (stereo not shown) : 200
8. CCCCOCCCCCCCCCc1cc2cn(C3CCC(CO)O3)c(=O)nc2o1 (stereo not shown) : 5
